# Test system: microvessel formation in rat aortic rings
# assaySummary: rat aortic ring model of angiogenesis (inhibition of microvessel formation)
# Assay type: cell-based
# cond: microvessel area after eight days in culture vs vehicle-treated control rings
metric: IC50 (nM)

* Cc1nsc(-c2ccc(NCCCCOc3ccccc3Cl)nn2)n1 | 1.34
* Cc1nsc(-c2ccc(N(C)CCCCCc3cccc(C(F)(F)F)c3)nn2)n1 | 0.28
* Cc1nsc(-c2ccc(N(C)CCCNc3cccc(C(F)(F)F)c3)nn2)n1 | 20.3
* Cc1nsc(-c2ccc(NCCCCCc3cccc(C(F)(F)F)c3)nn2)n1 | 5.81
* Cc1nsc(-c2ccc(NCCNc3cccc(C(F)(F)F)c3)nn2)n1 | 0.428
* Cc1nsc(-c2ccc(NCCCCOc3cccc(F)c3)nn2)n1 | 8.15
* CN(CCCCOc1cccc(C(F)(F)F)c1)c1ccc(-c2nc(CO)ns2)nn1 | 2.08
* Cc1nsc(-c2ccc(N(C)CCCCOc3ccc(F)cc3)nn2)n1 | 2.78
* Cc1nsc(-c2ccc(N(C)CCCCOc3ccccc3)nn2)n1 | 29.4
* Cc1nsc(-c2ccc(N(C)CCCCSc3ccc(F)cc3)nn2)n1 | 0.388
* Cc1nsc(-c2ccc(N(C)CCCCOc3ccc(F)c(F)c3)nn2)n1 | 2
* Cc1nsc(-c2ccc(NCCCCCOc3cccc(C(F)(F)F)c3)nn2)n1 | 0.622
* Cc1nsc(-c2ccc(N(C)CCCCOc3ccc(Cl)cc3)nn2)n1 | 37.2
* COc1cccc(OCCCCNc2ccc(-c3nc(C)ns3)nn2)c1 | 6.31
* Cc1nsc(-c2ccc(N(C)CCCCOc3cc(C(F)(F)F)cc(C(F)(F)F)c3)nn2)n1 | 7.33
* Cc1ccc(C(C)C)c(OCCCCNc2ccc(-c3nc(C)ns3)nn2)c1 | 24.8
* Cc1nsc(-c2ccc(NCCCCNc3cccc(C(F)(F)F)c3)nn2)n1 | 37.9
* Cc1nsc(-c2ccc(NCCCCCCNc3cccc(C(F)(F)F)c3)nn2)n1 | 8.53
* Cc1nsc(-c2ccc(N(C)CCCOc3cccc(C(F)(F)F)c3)nn2)n1 | 9.38
* Cc1nsc(-c2ccc(N(C)CCCCOc3ccc([N+](=O)[O-])c(C(F)(F)F)c3)nn2)n1 | 13.7
* Cc1nsc(-c2ccc(N(C)CCCCOc3cccc(C(F)(F)F)c3F)nn2)n1 | 1.46
* COc1ccc(OCCCCN(C)c2ccc(-c3nc(C)ns3)nn2)c(Cl)c1 | 11.5
* Cc1nsc(-c2ccc(N(C)CCCCC(=O)c3cccc(C(F)(F)F)c3)nn2)n1 | 12.2
* Cc1nsc(-c2ccc(N(C)CCCCSc3cccc(C(F)(F)F)c3)nn2)n1 | 1
* Cc1nsc(-c2ccc(N(C)CCCCOc3ccc(Br)cc3[N+](=O)[O-])nn2)n1 | 80.7
* Cc1nsc(-c2ccc(N(C)CCCCOc3ccc(Br)cc3)nn2)n1 | 5.3
* Cc1cccc(OCCCCN(C)c2ccc(-c3nc(C)ns3)nn2)c1 | 35.1
* Cc1nsc(-c2ccc(NCCCCCNc3ccccc3)nn2)n1 | 21.2
* Cc1nsc(-c2ccc(NCCCCNc3ccccc3)nn2)n1 | 45.7
* Cc1nsc(-c2ccc(NCCCCCCNc3ccccc3)nn2)n1 | 16.4
* Cc1nsc(-c2ccc(NCCCCOc3ccc(F)cc3)nn2)n1 | 48.4
* Cc1nsc(-c2ccc(N(C)CCNc3ccccc3)nn2)n1 | 17.9
* Cc1nsc(-c2ccc(N(C)CCCCOc3ccccc3Cl)nn2)n1 | 1.32
* Cc1nsc(-c2ccc(NCCCOc3cccc(C(F)(F)F)c3)nn2)n1 | 40.4
* Cc1nsc(-c2ccc(N(C)CCCCOc3cccc([N+](=O)[O-])c3)nn2)n1 | 51.1
* Cc1nsc(-c2ccc(N(C)CCCCOc3cccc(F)c3)nn2)n1 | 42.2
* Cc1nsc(-c2ccc(NCCOc3cccc(C(F)(F)F)c3)nn2)n1 | 1.33
